Exercise: state measured percent scFv-conjugated-liposome EphA2 binding on-rate for each of the binders provided.
- tgt: T1, His6-tagged recombinant human EphA2 protein (human, UniProt P29317 25-534)
- T1 construct: also called his-tagged recombinant, human EphA2; human EphA2 with c-terminal His6
- assay: BLI (Octet Red 96); His6-EphA2 on anti-His sensors; slope of association curve of scFv-linked liposomes at 0.025 mM phospholipid; TS1C printed as 100
The reply should be a number in %, with the unit left off.

[Q] What value of percent scFv-conjugated-liposome EphA2 binding on-rate has been recorded for this entry: scFv-13C (scFv, also called clone 13) scFv: QVQLVQSGGGLVQPGGSLRLSCAASGFTFSSYAMHWVRQAPGKGLEWVTVISPTGANTYYADSVKGRFTISRDNSKNTLYLQMNSLRAEDTAVYYCARASVGATGPFDIWGQGTLVTVSSASTGGGGSGGGGSGGGGSGGGGSSSELTQPPSVSVAPGQTVTITCQGDSLRSYYASWYQQKPGTAPKLLIYGENNRPSGVPDRFSGSSSGTSASLTITGAQAEDEADYYCNSRDSSGTHLTVFGGGTKLTVLGGGSGGC
[A] 120

[Q] What value of percent scFv-conjugated-liposome EphA2 binding on-rate has been recorded for this entry: scFv-8C (scFv, also called clone 8) scFv: QVQLVQSGGGLVQPGGSLRLSCAASGFTFSSYAMHWVRQAPGKGLEWVTVISPSGHNTYYADSVKGRFTISRDNSKNTLYLQMNSLRAEDTAVYYCARASVGATGPFDIWGQGTLVTVSSASTGGGGSGGGGSGGGGSGGGGSSSELTQPPSVSVAPGQTVTITCQGDSLRSYYASWYQQKPGTAPKLLIYGENNRPSGVPDRFSGSSSGTSASLTITGAQAEDEADYYCNSRDSSGTHLTVFGGGTKLTVLGGGSGGC
[A] 133

[Q] What value of percent scFv-conjugated-liposome EphA2 binding on-rate has been recorded for this entry: scFv-10C (scFv, also called clone 10) scFv: QVQLVQSGGGLVQPGGSLRLSCAASGFTFSSYAMHWVRQAPGKGLEWVSAISPPGHNTYYADSVKGRFTISRDNSKNTLYLQMNSLRAEDTAVYYCARASVGATGPFDIWGQGTLVTVSSASTGGGGSGGGGSGGGGSGGGGSSSELTQPPSVSVAPGQTVTITCQGDSLRSYYASWYQQKPGTAPKLLIYGENNRPSGVPDRFSGSSSGTSASLTITGAQAEDEADYYCNSRDSSGTHLTVFGGGTKLTVLGGGSGGC
[A] 110

[Q] What value of percent scFv-conjugated-liposome EphA2 binding on-rate has been recorded for this entry: scFv-3C (scFv, also called clone 3) scFv: QVQLVQSGGGLVQPGGSLRLSCAASGFTFSSYAMHWVRQAPGKGLEWVTVISPDGHNTYYADSVKGRFTISRDNSKNTLYLQMNSLRAEDTAVYYCARASVGATGPFDIWGQGTLVTVSSASTGGGGSGGGGSGGGGSGGGGSSSELTQPPSVSVAPGQTVTITCQGDSLRSYYASWYQQKPGTAPKLLIYGENNRPSGVPDRFSGSSSGTSASLTITGAQAEDEADYYCNSRDSSGTHLTVFGGGTKLTVLGGGSGGC
[A] 119

Value source: patent US20170267768A1
